# Measurement Target: Neuronal acetylcholine receptor subunit alpha-7 (Homo sapiens)
# Sequence (P36544 whole entry): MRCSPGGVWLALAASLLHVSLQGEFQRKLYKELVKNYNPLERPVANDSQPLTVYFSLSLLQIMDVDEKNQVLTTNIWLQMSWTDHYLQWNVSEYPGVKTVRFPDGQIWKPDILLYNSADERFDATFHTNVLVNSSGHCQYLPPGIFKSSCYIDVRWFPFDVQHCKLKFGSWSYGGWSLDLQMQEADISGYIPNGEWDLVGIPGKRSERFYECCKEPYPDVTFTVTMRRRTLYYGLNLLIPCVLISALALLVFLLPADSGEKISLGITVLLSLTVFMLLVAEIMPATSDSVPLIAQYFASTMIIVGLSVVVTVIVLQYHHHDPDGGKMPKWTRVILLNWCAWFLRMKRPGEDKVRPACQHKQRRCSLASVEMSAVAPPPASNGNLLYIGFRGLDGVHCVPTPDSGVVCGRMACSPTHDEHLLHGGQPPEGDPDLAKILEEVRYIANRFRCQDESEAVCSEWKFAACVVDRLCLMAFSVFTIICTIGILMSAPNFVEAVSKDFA
# Measurement Notes: Antagonist activity at human alpha-7 nAChR in tsA201 cells coexpressed with Ric3 by FMP assay
# Type: functional, cell-based
# Test Parameters: read-out: IC50
pIC50: −log10 of the molar value.
Quantity Kind: pIC50

[
  {
    "Molecule": "O=[N+]([O-])c1ccc(C[N+]23CCC4[C@@H]5/C(=C\\N6c7ccccc7[C@@]78CC[N+]9(Cc%10ccc([N+](=O)[O-])cc%10)CC%10=CCO[C@H]([C@@H]([C@H]67)[C@H]%10C[C@@H]89)N5c5ccccc5)[C@@H](C[C@@H]42)/C(=C\\CO)C3)cc1.[Br-].[Br-] (some centres not stated)",
    "Measurement Target": "Neuronal acetylcholine receptor subunit alpha-7 (Homo sapiens)",
    "Assay Value": 5.60
  },
  {
    "Molecule": "COc1ccc(C[N+]23CC[C@@H]4[C@@H]5[C@@H]6[C@@H](OCC=C(C2)[C@@H]6C[C@@H]43)N2c3ccccc3[C@@]34CC[N+]6(Cc7ccc(OC)c(OC)c7)CC7=CCO[C@H]([C@@H]([C@H]23)[C@H]7C[C@@H]46)N5c2ccccc2)cc1OC.[Cl-].[Cl-] (some centres not stated)",
    "Measurement Target": "Neuronal acetylcholine receptor subunit alpha-7 (Homo sapiens)",
    "Assay Value": 5.89
  },
  {
    "Molecule": "COc1ccc(C[N+]23CC[C@@H]4[C@@H]5/C(=C\\N6c7ccccc7[C@@]78CC[N+]9(Cc%10ccc(OC)c(OC)c%10)CC%10=CCO[C@H]([C@@H]([C@H]67)[C@H]%10C[C@@H]89)N5c5ccccc5)[C@@H](C[C@@H]42)/C(=C\\CO)C3)cc1OC.[Cl-].[Cl-] (some centres not stated)",
    "Measurement Target": "Neuronal acetylcholine receptor subunit alpha-7 (Homo sapiens)",
    "Assay Value": 5.59
  },
  {
    "Molecule": "C[N+](C)(C)Cc1c2n(c3ccccc13)Cc1c(C[N+](C)(C)C)c3ccccc3n1C2.[I-].[I-]",
    "Measurement Target": "Neuronal acetylcholine receptor subunit alpha-7 (Homo sapiens)",
    "Assay Value": 4.52
  },
  {
    "Molecule": "C=CC[N+]12CC[C@@H]3[C@@H]4[C@@H]5[C@@H](OCC=C(C1)[C@@H]5C[C@@H]32)N1c2ccccc2[C@@]23CC[N+]5(CC=C)CC6=CCO[C@H]([C@@H]([C@H]12)[C@H]6C[C@@H]35)N4c1ccccc1.[Br-].[Br-] (some centres not stated)",
    "Measurement Target": "Neuronal acetylcholine receptor subunit alpha-7 (Homo sapiens)",
    "Assay Value": 6.55
  },
  {
    "Molecule": "C=CC[N+]12CC[C@@]34c5ccccc5N5/C=C6/[C@H]7C[C@H]8[C@@]9(CC[N@@+]8(CC=C)C/C7=C/CO)c7ccccc7N(/C=C(/[C@@H](C[C@@H]31)/C(=C\\CO)C2)[C@H]54)[C@@H]69 (some centres not stated)",
    "Measurement Target": "Neuronal acetylcholine receptor subunit alpha-7 (Homo sapiens)",
    "Assay Value": 5.39
  },
  {
    "Molecule": "C[N+]12CC[C@@H]3[C@@H]4/C(=C\\N5c6ccccc6[C@@]67CC[N+]8(C)CC9=CCO[C@H]([C@@H]([C@H]56)[C@H]9C[C@@H]78)N4c4ccccc4)[C@@H](C[C@@H]31)/C(=C\\CO)C2.[I-].[I-] (some centres not stated)",
    "Measurement Target": "Neuronal acetylcholine receptor subunit alpha-7 (Homo sapiens)",
    "Assay Value": 5.68
  }
]
